The measured values listed here are drawn from PubChem BioAssay (NCI).

Collected TGI values appear next to each entry.
Test system: SR leukemia
Assay: NCI tumour cell line growth inhibition, 48 h

- compound: "N#CC1(O)CCCCCCCCCCC1"
  measurement.target: "SR leukemia"
  TGI: "> 100 µM"

Input: What TGI value was documented for this compound, `COc1ccc2[nH]c(O)c(C(=Nc3ccc(N(C)C(=O)CN4CCN(C)CC4)cc3)c3ccccc3)c2c1` ?
Output: 1.45 µM

Input: What TGI value was documented for this compound, `O=C(c1ccncc1)n1nc(-c2ccccc2)c(N=Nc2ccccc2[N+](=O)[O-])c1-c1ccccc1` ?
Output: > 100 µM

Input: What TGI value was documented for this compound, `O=[N+]([O-])c1cnn(C2=CNc3ccccc3N=C2)c1` ?
Output: > 100 µM

Input: What TGI value was documented for this compound, COC1OC(CO)C(O)C1N (stereo not given) ?
Output: > 100 µM

Input: What TGI value was documented for this compound, `CCOc1cc(/C=N\Nc2nnc(C)n2N)c(C)cc1N(CCCl)CCCl` ?
Output: 23.5 µM

Input: What TGI value was documented for this compound, COc1cc(CC(C)NC(C)=O)cc(OC)c1 (stereo not given) ?
Output: > 100 µM

Input: What TGI value was documented for this compound, CC(=O)OCC(OC(C)=O)C(OC(C)=O)C(OC(C)=O)C(=O)CNn1c(-c2ccccc2Cl)nc2ccccc2c1=O (stereo not given) ?
Output: > 100 µM

Input: What TGI value was documented for this compound, `COc1cc(-c2n/c(=C\c3c(O)[nH]c4ccc(Cl)cc34)cc3c2=Nc2ccccc2-3)ccc1F` ?
Output: 4.76 µM

Input: What TGI value was documented for this compound, `Cn1c(=O)c2c(nc3n(Cc4ccccc4)c(=O)c(NCCCBr)cn23)n(C)c1=O` ?
Output: > 100 µM
